- MEASURED_ON: CGRP receptor (SK-N-MC cell membranes) (Homo sapiens, UniProt O60894+Q16602)
- Construct: endogenous in cells; host or cells: SK-N-MC cells (membrane homogenate)
- Sequence (Q16602 23-461): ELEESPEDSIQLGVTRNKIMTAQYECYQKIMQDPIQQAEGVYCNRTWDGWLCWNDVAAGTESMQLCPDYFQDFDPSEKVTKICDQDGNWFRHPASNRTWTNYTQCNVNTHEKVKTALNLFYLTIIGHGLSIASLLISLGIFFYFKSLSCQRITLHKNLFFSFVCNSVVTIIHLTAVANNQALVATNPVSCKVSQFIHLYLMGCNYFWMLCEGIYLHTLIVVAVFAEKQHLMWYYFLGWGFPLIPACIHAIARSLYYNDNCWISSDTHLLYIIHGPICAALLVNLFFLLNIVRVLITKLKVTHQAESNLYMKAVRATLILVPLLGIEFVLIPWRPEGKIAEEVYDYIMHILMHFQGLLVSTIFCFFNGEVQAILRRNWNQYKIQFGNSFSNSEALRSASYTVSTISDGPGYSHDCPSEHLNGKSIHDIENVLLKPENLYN
- Sequence (O60894 27-148): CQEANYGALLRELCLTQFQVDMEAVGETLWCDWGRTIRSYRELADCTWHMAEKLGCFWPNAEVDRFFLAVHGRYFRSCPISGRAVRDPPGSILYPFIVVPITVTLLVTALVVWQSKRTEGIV
- MEASUREMENT_DESCRIPTION: CGRP Binding Assay ([125I]-CGRP radioligand binding, SK-N-MC homogenate)
- TEST_SETTINGS: displacement of [125I]-CGRP, SK-N-MC homogenate; read-out: CGRP binding IC50
MEASURED_METRIC: IC50

Look up IC50: O=C(Nc1ccc(F)c(Cl)c1)N[C@@H](CC(=O)N1CCC(N2Cc3ccccc3NC2=O)CC1)C(=O)N1CCC(N2CCCCC2)CC1
10 to 100 nM

Moving on to Cc1cc(CC(NC(=O)N2CCC(N3Cc4ccccc4NC3=O)CC2)C(=O)N2CCCC2)cc2cn[nH]c12 (racemic)
< 10 nM

And the next one, O=C1Nc2ccccc2C2(CCN(C(=O)C[C@H](Cc3csc4ccccc34)C(=O)N3CCC(N4CCCCC4)CC3)CC2)O1 ?
< 10 nM

Next molecule up: O=C1Nc2ccccc2C2(CCN(C(=O)N[C@H](Cc3csc4ccccc34)C(=O)N3CCC(N4CCCCC4)CC3)CC2)O1
10 to 100 nM

Same question for O=C(Cc1ccccc1)N[C@@H](CC(=O)N1CCC(N2Cc3ccccc3NC2=O)CC1)C(=O)N1CCC(N2CCCCC2)CC1 please.
100 to 1000 nM

Repeat for the following molecule: CCCCN1CCN(C(=O)C(Cc2ccc3[nH]ncc3c2)NC(=O)N2CCC(N3Cc4ccccc4NC3=O)CC2)CC1 (stereo not drawn) [Example 40c]
> 1000 nM

---

- MEASURED_ON: CGRP receptor (SK-N-MC cell membranes) (Homo sapiens, UniProt O60894+Q16602)
- Construct: endogenous in cells; host or cells: SK-N-MC cells (membrane homogenate)
- MEASUREMENT_DESCRIPTION: CGRP Binding Assay ([125I]-CGRP radioligand binding, SK-N-MC homogenate)
- TEST_SETTINGS: displacement of [125I]-CGRP, SK-N-MC homogenate; read-out: CGRP binding IC50
MEASURED_METRIC: IC50

Item O=C(Nc1ccc(-c2ccccc2)cc1)N[C@@H](CC(=O)N1CCC(N2Cc3ccccc3NC2=O)CC1)C(=O)N1CCC(N2CCCCC2)CC1 with CGRP receptor (SK-N-MC cell membranes) (Homo sapiens, UniProt O60894+Q16602) - IC50?
100 to 1000 nM

Try this compound too: O=C(Nc1ccc(Br)cc1)N[C@@H](CC(=O)N1CCC(N2Cc3ccccc3NC2=O)CC1)C(=O)N1CCC(N2CCCCC2)CC1
100 to 1000 nM

Also need O=C1NCC2(CCN(C(=O)N[C@H](Cc3csc4ccccc34)C(=O)N3CCC(N4CCCCC4)CC3)CC2)c2ccccc21 , thanks.
100 to 1000 nM

---

Field: IC50. Provide a value for each of the compounds that follow.
- MEASURED_ON: CGRP receptor (SK-N-MC cell membranes) (Homo sapiens, UniProt O60894+Q16602)
- Construct: endogenous in cells; host or cells: SK-N-MC cells (membrane homogenate)
- MEASUREMENT_DESCRIPTION: CGRP Binding Assay ([125I]-CGRP radioligand binding, SK-N-MC homogenate)
- TEST_SETTINGS: displacement of [125I]-CGRP, SK-N-MC homogenate; read-out: CGRP binding IC50

Record request: IC50 value, item O=C(C[C@H](Nc1nc(Cl)nc2[nH]cnc12)C(=O)N1CCC(N2CCCCC2)CC1)N1CCC(N2Cc3ccccc3NC2=O)CC1
100 to 1000 nM

Now this one: Cc1cc(CC(CC(=O)N2CCC(N3Cc4ccccc4NC3=O)CC2)C(=O)N2CCC3(CC2)OCCO3)cc2cn[nH]c12 (racemic)
< 10 nM

Cc1ccc(NC(=O)N[C@@H](CC(=O)N2CCC(N3Cc4ccccc4NC3=O)CC2)C(=O)N2CCC(N3CCCCC3)CC2)cc1Cl ?
100 to 1000 nM

Same read-out for Cc1cc(CC(NC(=O)N2CCC(N3Cc4ccccc4NC3=O)CC2)C(=O)OC2CCN(Cc3ccccc3)CC2)cc2cn[nH]c12 (stereo not shown) [Example 41b] ?
< 10 nM

One more compound: O=C(NC(Cc1ccc2[nH]ncc2c1)C(=O)N1CCN(C(=O)OCc2ccccc2)CC1)N1CCC(N2Cc3ccccc3NC2=O)CC1 (stereo not shown)
10 to 100 nM

What about O=C(N[C@@H](CC(=O)N1CCC(N2Cc3ccccc3NC2=O)CC1)C(=O)N1CCC(N2CCCCC2)CC1)c1cc(F)cc(F)c1 ?
100 to 1000 nM

Also O=C(NC(Cc1ccc(OCc2ccccc2)nc1)C(=O)N1CCC(N2CCCCC2)CC1)N1CCC(N2Cc3ccccc3NC2=O)CC1 (racemic) , if possible.
100 to 1000 nM

Input O=C(N[C@@H](CC(=O)N1CCC(N2Cc3ccccc3NC2=O)CC1)C(=O)N1CCC(N2CCCCC2)CC1)c1cccc([N+](=O)[O-])c1
100 to 1000 nM

And the next one, Cc1cc(CC(NC(=O)N2CCC(N3Cc4ccccc4NC3=O)CC2)C(=O)O)cc2cn[nH]c12 (racemic) ?
100 to 1000 nM

Same read-out for Cc1cc(CC(CC(=O)N2CCC(N3Cc4ccccc4NC3=O)CC2)C(=O)N(C)C)cc2cn[nH]c12 (racemic) ?
< 10 nM

Now the compound CCc1ccc(NC(=O)N[C@@H](CC(=O)N2CCC(N3Cc4ccccc4NC3=O)CC2)C(=O)N2CCC(N3CCCCC3)CC2)cc1
100 to 1000 nM

What do we get for Cc1cc(Br)ccc1NC(=O)N[C@@H](CC(=O)N1CCC(N2Cc3ccccc3NC2=O)CC1)C(=O)N1CCC(N2CCCCC2)CC1 ?
100 to 1000 nM

Same read-out for Cc1nc2cc(C[C@@H](NC(=O)N3CCC(N4Cc5ccccc5NC4=O)CC3)C(=O)N3CCC(N4CCCCC4)CC3)ccc2[nH]1 ?
10 to 100 nM
